# SYSTEM: GLP-1R (Homo sapiens, UniProt P43220)
# Sequence (P43220 24-463): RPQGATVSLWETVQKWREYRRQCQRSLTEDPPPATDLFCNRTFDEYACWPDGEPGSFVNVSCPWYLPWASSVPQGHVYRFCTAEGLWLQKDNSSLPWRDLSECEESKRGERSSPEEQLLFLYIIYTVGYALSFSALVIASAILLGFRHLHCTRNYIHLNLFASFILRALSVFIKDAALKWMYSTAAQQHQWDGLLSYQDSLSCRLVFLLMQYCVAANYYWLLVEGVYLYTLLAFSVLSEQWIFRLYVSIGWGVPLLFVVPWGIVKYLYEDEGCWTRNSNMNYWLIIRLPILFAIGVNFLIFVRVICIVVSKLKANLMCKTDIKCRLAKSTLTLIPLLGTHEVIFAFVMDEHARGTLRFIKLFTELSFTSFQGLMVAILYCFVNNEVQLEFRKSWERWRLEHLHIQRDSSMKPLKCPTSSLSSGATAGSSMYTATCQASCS
# EXPERIMENT: GLP-1R activation: cAMP increase in CHO cells stably expressing GLP-1R
# Assay type: cell-based
# COND: cAMP increase, CHO cells stably expressing GLP-1R, 10 point dose response, 30 minutes incubation; read-out: EC50
pEC50: −log10 of the molar value.
ASSAY_METRIC: pEC50

INSERT INTO measurements (molecule, recorded_number) VALUES
  ('CC1(Cn2c(Cc3ccc(-c4cccc(OCc5ccc(C#N)cc5F)n4)cc3F)nc3ccc(C(=O)NS(=O)(=O)C4CC4)cc32)CC1', 7.72),
  ('N#Cc1ccc(COc2cccc(-c3cc(F)c(Cc4nc5ccc(C(=O)O)cc5n4CC45CC(C4)C(C(F)(F)F)O5)cc3F)n2)c(F)c1 (stereo not shown)', 8.72),
  ('O=C(O)c1ccc2nc(Cc3cc(F)c(-c4cccc(OCc5ccc(Cl)nc5OC(F)F)n4)cc3F)n(C[C@@H]3CCO3)c2c1', 9.19),
  ('COc1cc(Cl)ccc1COc1cccc(-c2ccc(Cc3nc4ccc(C(=O)O)cc4n3CC3(CC#N)CC3)cc2F)n1', 9.34),
  ('COC(CN)Cn1c(Cc2ccc(-c3cccc(OCc4ccc(C#N)cc4F)n3)cc2F)nc2ccc(C(=O)O)cc21 (single isomer, unassigned) [Example 340]', 7.36),
  ('COCCn1c(Cc2cc(F)c(-c3cccc(OCc4ccc(C(C)=O)cc4)n3)cc2F)nc2ccc(C(=O)O)cc21', 8.63),
  ('Cc1cnc(Cn2c(Cc3cc(F)c(-c4cccc(OCc5ccc(C#N)cc5F)n4)cc3F)nc3ccc(C(=O)O)cc32)o1', 7.57),
  ('CC(C)(C#N)Cn1c(Cc2ccc(-c3cccc(OCc4ccc(C#N)cc4F)n3)c(F)c2)nc2ccc(C(=O)O)cc21', 8.51),
  ('O=C(O)c1ccc2nc(Cc3ccc(-c4ccc(F)c(OCc5ccc(Cl)cc5F)c4)cc3F)n(CCO)c2c1', 6.44),
  ('COC(CNC(C)=O)Cn1c(Cc2ccc(-c3cccc(OCc4ccc(C#N)cc4F)n3)cc2F)nc2ccc(C(=O)O)cc21 (single isomer, unassigned) [Example 342]', 5.47),
  ('O=C(O)c1ccc2nc(Cc3ccc(-c4ccnc(OCc5ccc(Cl)cc5F)n4)c(F)c3)n(CC3(CF)CC3)c2n1', 8.97),
  ('COCCn1c(Cc2c(F)cc(-c3ncc(F)c(OCc4ccc(C#N)cc4F)n3)c(F)c2F)nc2ccc(C(=O)O)cc21', 9.17),
  ('N#Cc1ccc(COc2cccc(-c3ccc(Cc4nc5ccc(C(=O)O)cc5n4CC4(C#N)CC4)c(F)c3)n2)c(F)c1', 8.57);

---

# EXPERIMENT: Microsomal stability, human liver microsomes (predicted hepatic clearance)
# COND: predicted from in vitro microsomal stability data
ASSAY_METRIC: Predicted Hepatic Clearance (Pred. Cl.) (mL/min/kg)

INSERT INTO measurements (chemical_string, recorded_number) VALUES
  ('N#Cc1cc(F)c(COc2ccnc(-c3cc(F)c(Cc4nc5ccc(C(=O)O)cc5n4C[C@@H]4CCO4)cc3F)n2)cc1F', 9.83),
  ('COCCn1c(Cc2cc(F)c(-c3cccc(OCc4ccc(C#N)cc4F)n3)cc2C)nc2ccc(C(=O)O)cc21', 6),
  ('CC(=O)N1CCC[C@H]1Cn1c(Cc2ccc(-c3cccc(OCc4ccc(C#N)cc4F)n3)cc2F)nc2ccc(C(=O)O)cc21', 3.83),
  ('CC(=O)N1C[C@@H](F)C[C@@H]1Cn1c(Cc2cc(F)c(-c3cccc(OCc4ccc(C#N)cc4F)n3)cc2F)nc2ccc(C(=O)O)cc21', 6),
  ('N#Cc1ccc(COc2cccc(-c3cc(F)c(Cc4nc5ccc(C(=O)O)cc5n4C[C@H]4COCCO4)cc3F)n2)c(F)c1', 2.83),
  ('COCCOCCn1c(Cc2ccc(-c3cccc(OCc4ccc(C#N)cc4F)n3)cc2F)nc2ccc(C(=O)O)cc21', 12),
  ('N#CCC1(Cn2c(Cc3cc(F)c(-c4ccc(F)c(OCc5ccc(C#N)cc5F)n4)cc3F)nc3ccc(C(=O)O)nc32)CC1', 5.5),
  ('COCCn1c(Cn2c(C)cc(-c3cccc(OCc4ccc(C#N)cc4F)n3)cc2=O)nc2ccc(C(=O)O)cc21', 2.67),
  ('COCCn1c(Cc2ccc(-c3cccc(OCc4ccc(C#N)cc4F)n3)cc2NC(=O)OC)nc2ccc(C(=O)O)cc21', 8.67),
  ('CC(C)(C#N)Cn1c(Cc2ccc(-c3cccc(OCc4ccc(C#N)cc4F)n3)cc2F)nc2ccc(C(=O)O)cc21', 5),
  ('N#Cc1ccc(COc2cccc(-c3cc(F)c(Cc4nc5ccc(C(=O)O)cc5n4CCOC(F)F)cc3F)n2)c(F)c1', 5.67),
  ('COCCn1c(Cc2cc(F)c(-c3cccc(OCc4cc(C#N)cs4)n3)cc2F)nc2ccc(C(=O)O)cc21', 11.5),
  ('N#CCC1(Cn2c(Cc3ccc(-c4ccc(F)c(OCc5ccc(C#N)cc5F)n4)c(F)c3)nc3ccc(C(=O)O)cc32)CC1', 6.7),
  ('CO[C@H]1C[C@@H](Cn2c(Cc3cc(F)c(-c4cccc(OCc5ccc(C#N)cc5F)n4)cc3F)nc3ccc(C(=O)O)cc32)C1', 1.83);

---

# SYSTEM: GLP-1R (Homo sapiens)
# EXPERIMENT: GLP-1R activation: cAMP increase in CHO cells stably expressing GLP-1R
# Format: cell-based
# COND: cAMP increase, CHO cells stably expressing GLP-1R, 10 point dose response, 30 minutes incubation; read-out: EC50
pEC50: −log10 of the molar value.
ASSAY_METRIC: pEC50

INSERT INTO assay_data (chemical_string, recorded_number) VALUES
  ('COCCn1c(Cc2ccc(-c3cccc(OCc4ccc(C#N)cc4F)n3)cc2C#CCCO)nc2ccc(C(=O)O)cc21', 8.48),
  ('COCCn1c(Cc2ccc(-c3cccc(OCc4ccc(C#N)cc4F)n3)cc2F)nc2ccc(C(=O)O)c(Cl)c21', 7.68),
  ('COCCn1c(Cc2cc(F)c(-c3cccc(OCc4ccc(C#N)s4)n3)cc2F)nc2ccc(C(=O)O)cc21', 8.15),
  ('N#Cc1ccc(COc2nc(-c3cc(F)c(Cc4nc5ccc(C(=O)O)cc5n4C[C@@H]4CCO4)cc3F)ccc2F)c(F)c1', 9.11),
  ('COCCn1c(Cc2ccc(-c3cccc(OCc4cccc5c4OCCN5C)n3)cc2F)nc2ccc(C(=O)O)cc21', 5.69),
  ('N#Cc1ccc(COc2nccc(-c3ccc(Cc4nc5ccc(C(=O)O)nc5n4CC4(CF)CC4)c(F)c3)n2)c(F)c1', 8.51),
  ('COCCn1c(Cc2ccc(-c3cccc(OCc4cccc(OC(F)F)c4OC)n3)cc2F)nc2ccc(C(=O)O)cc21', 6.70);

---

# key: entry, value: Predicted Hepatic Clearance (Pred. Cl.)
# EXPERIMENT: Microsomal stability, human liver microsomes (predicted hepatic clearance)
# COND: predicted from in vitro microsomal stability data
ASSAY_METRIC: Predicted Hepatic Clearance (Pred. Cl.) (L/h/kg)

INSERT INTO results (compound, assay_metric, qualifier_operator, recorded_number) VALUES
  ('N#Cc1ccc(COc2cccc(-c3ccc(Cc4nc5c(F)cc(C(=O)O)cc5n4C[C@@H]4CCO4)c(F)c3)n2)c(F)c1 [Example 455]', 'Predicted Hepatic Clearance (Pred. Cl.)', '<', 0.11),
  ('COCCn1c(Cc2c(F)cc(-c3cccnc3OCc3cc(Cl)ccc3F)cc2F)nc2ccc(C(=O)O)cc21 [Example 408]', 'Predicted Hepatic Clearance (Pred. Cl.)', '=', 0.605),
  ('COCCn1c(Cn2cc(F)c(-c3cccc(OCc4ccc(C#N)cc4F)n3)cc2=O)nc2c(F)cc(C(=O)O)cc21 [Example 684]', 'Predicted Hepatic Clearance (Pred. Cl.)', '=', 0.18),
  ('N#Cc1ccc(COc2cccc(-c3cc(F)c(Cc4nc5ccc(C(=O)O)cc5n4CC4CCCCO4)cc3F)n2)c(F)c1 (stereo not shown) [Example 640]', 'Predicted Hepatic Clearance (Pred. Cl.)', '=', 0.51),
  ('N#Cc1cc(F)c(COc2ncc(F)c(-c3cc(F)c(Cc4nc5c(F)cc(C(=O)O)cc5n4C[C@@H]4CCO4)cc3F)n2)cc1F [Example 885]', 'Predicted Hepatic Clearance (Pred. Cl.)', '=', 0.55),
  ('N#Cc1ccc(COc2nc(-c3cc(F)c(Cc4nc5c(F)cc(C(=O)O)cc5n4C[C@@H]4CCO4)cc3F)ccc2F)c(F)c1 [Example 768]', 'Predicted Hepatic Clearance (Pred. Cl.)', '=', 0.165),
  ('COCCn1c(Cc2ccc(-c3cccc(OCc4ccc(C#N)cc4F)n3)cc2F)nc2cccc(C(=O)O)c21 [Example 201]', 'Predicted Hepatic Clearance (Pred. Cl.)', '=', 0.18);
